system: HeLa Kyoto; assay: melting temperature (median over replicates), in situ; higher = more thermally stable; details: cell cycle stage: G1/S;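 also: HeLa Kyoto cells synchronized by double thymidine or nocodazole block, proteins quantified by TMT10plex mass spectrometry, three independent biological replicates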
Collected melting temperature values appear next to each entry.
Readout: melting temperature (°C)

MNPESSIFIEDYLKYFQDQVSRENLLQLLTDDEAWNGFVAAAELPRDEADELRKALNKLASHMVMKDKNRHDKDQQHRQWFLKEFPRLKRELEDHIRKLRALAEEVEQVHRGTTIANVVSNSVGTTSGILTLLGLGLAPFTEGISFVLLDTGMGLGAAAAVAGITCSVVELVNKLRARAQARNLDQSGTNVAKVMKEFVGGNTPNVLTLVDNWYQVTQGIGRNIRAIRRARANPQLGAYAPPPHVIGRISAEGGEQVERVVEGPAQAMSRGTMIVGAATGGILLLLDVVSLAYESKHLLEGAKSESAEELKKRAQELEGKLNFLTKIHEMLQPGQDQ [APOL2]; 50
MDSAGQDINLNSPNKGLLSDSMTDVPVDTGVAARTPAVEGLTEAEEEELRAELTKVEEEIVTLRQVLAAKERHCGELKRRLGLSTLGELKQNLSRSWHDVQVSSAYVKTSEKLGEWNEKVTQSDLYKKTQETLSQAGQKTSAALSTVGSAISRKLGDMRNSATFKSFEDRVGTIKSKVVGDRENGSDNLPSSAGSGDKPLSDPAPF [TPD52L2]; 53
MAQKRPACTLKPECVQQLLVCSQEAKKSAYCPYSHFPVGAALLTQEGRIFKGCNIENACYPLGICAERTAIQKAVSEGYKDFRAIAIASDMQDDFISPCGACRQVMREFGTNWPVYMTKPDGTYIVMTVQELLPSSFGPEDLQKTQ [CDA]; 54.4
